conditionSummary: in isopropanol, 293.15 K
reportedProperty: solubility (mole fraction)

{"columns": ["compound", "reportedProperty", "val"],
 "data": [
  ["COc1c(N2CCNC(C)C2)c(F)cc2c(=O)c(C(=O)O)cn(C3CC3)c12 (stereo unspecified)", "solubility (mole fraction)", 0.000322]
]}

----------
conditionSummary: in acetone, 273.15 K
reportedProperty: solubility (mole fraction)

{"columns": ["molecule", "reportedProperty", "val"],
 "data": [
  ["COc1c(N2CCNC(C)C2)c(F)cc2c(=O)c(C(=O)O)cn(C3CC3)c12 (stereo unspecified)", "solubility (mole fraction)", 0.00081]
]}
